Target: human LPA1 (Homo sapiens, UniProt Q92633)
Sequence (Q92633 whole entry): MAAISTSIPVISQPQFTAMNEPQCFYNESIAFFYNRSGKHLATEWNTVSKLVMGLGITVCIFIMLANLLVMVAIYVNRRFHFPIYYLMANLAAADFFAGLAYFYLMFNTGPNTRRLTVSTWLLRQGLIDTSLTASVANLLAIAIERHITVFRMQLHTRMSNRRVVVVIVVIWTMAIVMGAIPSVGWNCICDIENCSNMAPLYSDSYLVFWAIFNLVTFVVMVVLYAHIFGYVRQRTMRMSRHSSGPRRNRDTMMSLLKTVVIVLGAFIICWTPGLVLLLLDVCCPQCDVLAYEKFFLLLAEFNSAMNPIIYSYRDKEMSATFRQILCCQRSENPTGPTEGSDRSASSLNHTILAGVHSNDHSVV
Assay: LPA1 functional antagonist assay (calcium flux)
Settings: CHO cells overexpressing human LPA1; inhibition of calcium flux induced by 10 nM LPA; read-out: hLPA1 IC50
assayMetric: IC50 (nM)
# output: bare number, implied unit nM

Examples from the recorded data:
> print(dat)
                                   compound  assaymetric  recordedresult
1  Cc1nc(-c2nnn(C)c2CNc2ncc(F)c(N3CCC3)n2)ccc1O[C@H]1CCC[C@H](C(=O)O)C1         IC50             218
2  Cc1nc(-c2nnn(C)c2CNc2nccc(Oc3cccc(C#N)c3)n2)ccc1O[C@H]1CCC[C@H](C(=O)O)C1         IC50             241

Request: Any idea what IC50 came out for `Cc1nc(-c2nnn(C)c2Cc2cc(-c3ccccc3)ccn2)ccc1O[C@H]1CCC[C@H](C(=O)O)C1` on human LPA1 (Homo sapiens, UniProt Q92633)?
Response: 7.2

Request: Any idea what IC50 came out for `Cc1nc(-c2nnn(C)c2CNc2nncc(C(C)(C)C)n2)ccc1O[C@H]1CCC[C@H](C(=O)O)C1` on human LPA1 (Homo sapiens, UniProt Q92633)?
Response: 498

Request: Any idea what IC50 came out for `Cc1nc(-c2nnn(C)c2CNc2nccc(OCC3(F)CC3)n2)ccc1O[C@H]1CCC[C@H](C(=O)O)C1` on human LPA1 (Homo sapiens, UniProt Q92633)?
Response: 112

Request: Any idea what IC50 came out for Cc1nc(-c2nnn(C)c2CNc2nccc(OC3CCOC3)n2)ccc1O[C@H]1CCC[C@H](C(=O)O)C1 (stereo partly shown) on human LPA1 (Homo sapiens, UniProt Q92633)?
Response: 172
